# Tested on: Artemia
# TEST_DESCRIPTION: Toxicity in brine shrimp
# Assay type: organism-based
# CONDITION_CONTEXT: in vivo

>  <MOLECULE>
O=C1NCC(O)n2cc(Br)cc21 (centres undefined)

>  <ASSAY_SYSTEM>
Artemia

>  <Activity>
Not Active

$$$$
>  <MOLECULE>
O=C1CCNC(=O)c2[nH]ccc21

>  <ASSAY_SYSTEM>
Artemia

>  <Activity>
Not Active

$$$$
>  <MOLECULE>
O=C1CCNC(=O)c2[nH]c(Br)cc21

>  <ASSAY_SYSTEM>
Artemia

>  <Activity>
Not Active

$$$$
>  <MOLECULE>
O=C(O)/C1=N/CCCC[C@@H](C(=O)O)N1

>  <ASSAY_SYSTEM>
Artemia

>  <Activity>
Not Active

$$$$
